Tested System: human Fatty Acid Synthase (Homo sapiens, UniProt P49327)
Construct: made in house
Sequence (P49327 whole entry): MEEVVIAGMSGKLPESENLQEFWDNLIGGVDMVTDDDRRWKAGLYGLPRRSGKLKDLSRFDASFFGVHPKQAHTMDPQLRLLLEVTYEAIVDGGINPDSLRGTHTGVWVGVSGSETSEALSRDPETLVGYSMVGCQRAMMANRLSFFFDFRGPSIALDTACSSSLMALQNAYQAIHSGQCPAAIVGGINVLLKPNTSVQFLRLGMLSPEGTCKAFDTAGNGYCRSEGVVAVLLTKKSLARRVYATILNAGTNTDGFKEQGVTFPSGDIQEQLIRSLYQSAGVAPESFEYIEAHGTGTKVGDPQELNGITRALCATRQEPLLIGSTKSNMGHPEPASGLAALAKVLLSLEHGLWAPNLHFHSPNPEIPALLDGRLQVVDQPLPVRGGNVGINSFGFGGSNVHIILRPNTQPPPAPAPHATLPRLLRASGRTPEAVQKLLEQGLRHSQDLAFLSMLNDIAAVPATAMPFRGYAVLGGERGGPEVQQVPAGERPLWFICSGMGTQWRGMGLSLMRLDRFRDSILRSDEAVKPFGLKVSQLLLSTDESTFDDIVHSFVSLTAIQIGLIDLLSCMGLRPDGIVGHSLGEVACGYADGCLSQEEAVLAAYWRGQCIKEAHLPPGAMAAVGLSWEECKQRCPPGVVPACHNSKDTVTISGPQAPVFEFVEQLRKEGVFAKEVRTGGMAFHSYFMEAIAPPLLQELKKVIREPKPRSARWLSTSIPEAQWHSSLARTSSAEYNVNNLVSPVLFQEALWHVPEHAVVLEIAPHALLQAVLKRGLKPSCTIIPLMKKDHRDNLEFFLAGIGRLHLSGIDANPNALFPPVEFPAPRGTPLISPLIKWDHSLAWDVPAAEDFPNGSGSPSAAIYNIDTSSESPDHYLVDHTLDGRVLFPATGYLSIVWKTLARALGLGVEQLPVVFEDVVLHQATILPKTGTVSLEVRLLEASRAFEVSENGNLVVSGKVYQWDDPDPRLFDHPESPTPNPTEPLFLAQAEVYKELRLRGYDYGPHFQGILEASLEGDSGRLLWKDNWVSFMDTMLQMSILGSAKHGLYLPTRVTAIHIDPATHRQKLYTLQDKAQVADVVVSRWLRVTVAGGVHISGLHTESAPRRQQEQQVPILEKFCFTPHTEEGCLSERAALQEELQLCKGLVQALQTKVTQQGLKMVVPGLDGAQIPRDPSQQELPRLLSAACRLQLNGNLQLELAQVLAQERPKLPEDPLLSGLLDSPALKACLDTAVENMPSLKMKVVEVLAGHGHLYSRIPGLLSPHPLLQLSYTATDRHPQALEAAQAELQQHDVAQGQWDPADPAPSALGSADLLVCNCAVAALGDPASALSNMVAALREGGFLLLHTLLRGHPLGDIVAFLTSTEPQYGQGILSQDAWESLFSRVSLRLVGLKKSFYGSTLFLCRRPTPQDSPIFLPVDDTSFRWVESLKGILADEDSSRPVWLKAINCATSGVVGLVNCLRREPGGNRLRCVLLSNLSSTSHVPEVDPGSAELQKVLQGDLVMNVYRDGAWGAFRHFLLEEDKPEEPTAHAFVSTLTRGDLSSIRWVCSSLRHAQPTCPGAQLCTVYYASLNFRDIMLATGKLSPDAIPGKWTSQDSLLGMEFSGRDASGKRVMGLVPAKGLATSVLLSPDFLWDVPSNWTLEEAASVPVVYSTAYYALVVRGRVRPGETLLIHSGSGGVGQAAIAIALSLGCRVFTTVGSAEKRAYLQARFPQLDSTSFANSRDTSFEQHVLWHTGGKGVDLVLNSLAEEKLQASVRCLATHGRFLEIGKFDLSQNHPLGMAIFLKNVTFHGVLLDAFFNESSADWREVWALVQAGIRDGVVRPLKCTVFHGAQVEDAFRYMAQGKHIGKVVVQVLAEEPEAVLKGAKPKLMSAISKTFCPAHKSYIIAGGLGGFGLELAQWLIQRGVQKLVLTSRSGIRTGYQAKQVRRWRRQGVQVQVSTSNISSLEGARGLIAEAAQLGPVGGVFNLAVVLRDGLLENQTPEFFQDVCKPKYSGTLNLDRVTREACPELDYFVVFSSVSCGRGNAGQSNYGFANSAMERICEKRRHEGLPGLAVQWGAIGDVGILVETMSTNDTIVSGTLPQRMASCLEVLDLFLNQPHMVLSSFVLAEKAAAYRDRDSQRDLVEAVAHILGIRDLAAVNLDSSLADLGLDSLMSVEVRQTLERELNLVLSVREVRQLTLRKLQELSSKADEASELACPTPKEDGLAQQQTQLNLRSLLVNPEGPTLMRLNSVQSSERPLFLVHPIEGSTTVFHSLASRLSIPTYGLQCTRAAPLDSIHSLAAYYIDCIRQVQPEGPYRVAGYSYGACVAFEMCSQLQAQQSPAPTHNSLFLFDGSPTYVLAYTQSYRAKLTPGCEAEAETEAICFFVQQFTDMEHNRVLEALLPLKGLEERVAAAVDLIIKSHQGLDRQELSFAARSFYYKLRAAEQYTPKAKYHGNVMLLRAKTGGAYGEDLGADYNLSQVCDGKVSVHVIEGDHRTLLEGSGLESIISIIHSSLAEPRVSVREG
Assay: Human FAS enzyme assay (decrease in NADPH fluorescence)
Format: biochemical
Experimental Conditions: % inhibition at a concentration of 100 μmolar
Kindly supply the reported inhibition at 100 µM values for the records listed here.
One number for each entry, in %.

Please review the following examples before continuing.
Cc1ccc(C(=O)N2CCC(c3ccc(C#N)cc3)CC2)cc1NC(=O)NCc1cncn1C [Example 150] = 85
Cc1ccc(C(=O)N2CCC(c3ccc(C#N)cc3)CC2)cc1NC(=O)NCC(C)(C)NC(=O)C(C)C [Example 263] = 79

Incoming: Can you share its inhibition at 100 µM? I mean this compound: Cc1ccc(C(=O)N2CCC(O)(c3ccc(Br)cc3)CC2)cc1NC(=O)NC(C)C [Example 39]
Outgoing: 79.1

====

Tested System: human Fatty Acid Synthase (Homo sapiens)
Construct: made in house
Assay: Human FAS enzyme assay (decrease in NADPH fluorescence)
Assay type: biochemical
Experimental Conditions: % inhibition at a concentration of 100 μmolar
Test Readout: inhibition at 100 µM (%)
Answers are plain numbers, in %.

Example compounds with recorded inhibition at 100 µM:
Cc1ccc(C(=O)N2CCC(c3ccc(C#N)cc3)CC2)cc1NC(=O)NCc1nnn[nH]1 = 82
Cc1ccc(C(=O)N2CCC(c3ccc(C#N)cc3)CC2)cc1NC(=O)NCCC(=O)O = 91.7
Cc1ccc(C(=O)N2CCC(c3ccc(C#N)cc3)CC2)cc1NC(=O)N(CCO)C(C)C = 71.6

Below: the item to evaluate.
Incoming: Recorded inhibition at 100 µM of `Cc1cc(C)c(C(=O)N2CCC(c3ccc(C#N)cc3)CC2)cc1NC(=O)NCc1ccccn1` , please.
Outgoing: 96.9

====

Tested System: human Fatty Acid Synthase (Homo sapiens)
Construct: made in house
Assay: Human FAS enzyme assay (decrease in NADPH fluorescence)
Format: biochemical
Experimental Conditions: % inhibition at a concentration of 100 μmolar
Test Readout: inhibition at 100 µM (%)
Numbers only, in %.

Please review the entries below; each comes with its answer.
Cc1ccc(C(=O)N2CCC(c3ccc(C#N)cc3)CC2)cc1NC(=O)NCCCOC(C)C = 88.2
Cc1ccc(C(=O)N2CCC(c3ccc(C#N)cc3)CC2)cc1NC(=O)NCCC(=O)Nc1ccccn1 = 94.6
Cc1ccc(C(=O)N2CCC(c3ccc(C#N)cc3)CC2)cc1NC(=O)N(C)CCO = 76.3

Incoming: Bench note: what inhibition at 100 µM did `Cc1ccc(C(=O)N2CCC(c3ccc(C#N)cc3)CC2)cc1NC(=O)NCCNS(=O)(=O)c1ccccc1` show?
Outgoing: 94

====

I'd appreciate it if you could supply inhibition at 100 µM values for the items below.
Tested System: human Fatty Acid Synthase (Homo sapiens, UniProt P49327)
Construct: made in house
Assay: Human FAS enzyme assay (decrease in NADPH fluorescence)
Assay type: biochemical
Experimental Conditions: % inhibition at a concentration of 100 μmolar
Answers are plain numbers, in %.

Cc1ccc(C(=O)N2CCC(c3ccc(C(F)(F)F)cc3)CC2)cc1NC(=O)NCCN(C)C = 92.6
Cc1ccc(C(=O)N2CCC(c3ccc(C#N)cc3)CC2)cc1NC(=O)NCCCN1CCCC(C)C1 (stereo not shown) = 77.8
Cc1ccc(C(=O)N2CCC(c3ccc(C#N)cc3)CC2)cc1NC(=O)NCc1ccccn1 = 94.4
Cc1ccc(C(=O)N2CCC(c3ccc(C#N)cc3)CC2)cc1NC(=O)NC(C)Cc1c[nH]c2ccccc12 (racemic) = 87.7
CCS(=O)(=O)N[C@H]1CC[C@H](NC(=O)Nc2cc(C(=O)N3CCC(c4ccc(C#N)cc4)CC3)ccc2C)C1 = 97.1

I need inhibition at 100 µM for every entry listed below, if you could help.
1. CCNC(=O)Nc1cc(C(=O)N2CCC(c3ccc(C#N)cc3)CC2)c(C)cc1C
2. Cc1ccc(C(=O)N2CCC(c3ccc(C#N)cc3)CC2)cc1NC(=O)NCCCNS(C)(=O)=O

Outgoing:
1. 93.7
2. 100
